- Test system: HLA-A*02
- run_description: MHC binding assay, UV-ligand exchange with β2m ELISA, HLA-A*02 (Table 20)
- Set-up: species or system human
- experimental_setup: binding to HLA-A*02 ranged by peptide exchange yield (UV-ligand exchange, β2m ELISA)
measured_metric: Peptide exchange

Recorded results for 5 substances are shown here.
62 (ALNPELVQA; listed as Homo sapiens) [compound 62]: ++ (20%-49% = ++)
12 (GLLPLLHRA; listed as Homo sapiens) [compound 12]: ++++ (≧75% = ++++)
4 (KLMPGTYTL; listed as Homo sapiens) [compound 4]: ++++ (≧75% = ++++)
121 (FTIFRTISV; listed as Homo sapiens) [compound 121]: +++ (50%-75% = +++)
258 (LLSERFINV; listed as Homo sapiens) [compound 258]: ++++ (≧75% = ++++)

Given item 113 (FLERGLESA; listed as Homo sapiens) [compound 113] , the value recorded as its Peptide exchange is ++ (20%-49% = ++)

Given item 122 (GVVDPVHGV; listed as Homo sapiens) [compound 122] , the value recorded as its Peptide exchange is ++ (20%-49% = ++)

Given item 37 (ILAPFSVDL; listed as Homo sapiens) [compound 37] , the value recorded as its Peptide exchange is +++ (50%-75% = +++)

All figures here come from patent US20170189504A1.
